Recorded inhibition values for a group of compounds are listed next.
Target: Steryl-sulfatase (Homo sapiens) (UniProt P08842)
Sequence (P08842 whole entry): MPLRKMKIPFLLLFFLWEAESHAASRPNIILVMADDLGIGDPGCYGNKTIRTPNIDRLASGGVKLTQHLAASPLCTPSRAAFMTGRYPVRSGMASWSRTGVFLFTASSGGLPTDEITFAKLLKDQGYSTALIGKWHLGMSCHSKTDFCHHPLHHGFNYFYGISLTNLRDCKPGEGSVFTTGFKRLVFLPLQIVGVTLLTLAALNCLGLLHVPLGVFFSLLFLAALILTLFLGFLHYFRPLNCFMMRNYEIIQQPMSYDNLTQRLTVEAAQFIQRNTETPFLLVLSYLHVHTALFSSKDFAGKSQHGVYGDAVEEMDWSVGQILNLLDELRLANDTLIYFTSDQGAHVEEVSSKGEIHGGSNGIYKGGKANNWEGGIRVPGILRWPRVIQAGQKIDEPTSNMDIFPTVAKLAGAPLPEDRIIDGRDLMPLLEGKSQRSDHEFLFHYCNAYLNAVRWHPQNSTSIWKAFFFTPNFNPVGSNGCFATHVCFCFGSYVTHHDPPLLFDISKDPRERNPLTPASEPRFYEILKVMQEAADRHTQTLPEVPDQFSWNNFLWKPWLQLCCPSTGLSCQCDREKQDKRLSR
Assay: In vitro inhibition of Estrone Sulfatase in placental microsomes at a concentration of 10 uM.
Conditions: Placenta

[
  {
    "Smiles representation": "NS(=O)(=O)Oc1ccc2c(c1)CCC=C2",
    "Data value": "< 10%"
  }
]

Give recorded inhibition. `COc1cc2ccc(=O)oc2cc1OS(N)(=O)=O`
< 10%

Specify inhibition for `NS(=O)(=O)Oc1ccc2c(c1)C(=O)CC2` and stop.
< 10%

Dear colleague, please send me the reported inhibition for `Cc1cc(=O)oc2cc(OS(N)(=O)=O)c(OS(N)(=O)=O)cc12` when you can.
< 10%

Supply reported inhibition belonging to this compound: `Cc1cc(=O)oc2cc(O)c(OS(N)(=O)=O)cc12`
< 10%
